Cited source: PubChem BioAssay

# system tested: Follistatin (Homo sapiens) (UniProt P19883)
# Sequence (P19883 whole entry, looked up): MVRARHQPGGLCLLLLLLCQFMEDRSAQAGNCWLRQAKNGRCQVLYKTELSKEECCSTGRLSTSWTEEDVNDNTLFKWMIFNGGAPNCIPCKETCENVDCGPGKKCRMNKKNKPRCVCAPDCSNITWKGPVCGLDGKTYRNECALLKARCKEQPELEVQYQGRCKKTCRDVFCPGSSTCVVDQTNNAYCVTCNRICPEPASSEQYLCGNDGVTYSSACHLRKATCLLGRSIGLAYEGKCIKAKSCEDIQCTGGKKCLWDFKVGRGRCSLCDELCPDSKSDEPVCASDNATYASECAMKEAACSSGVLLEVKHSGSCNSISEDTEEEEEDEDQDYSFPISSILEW
# measurement notes: follistatin binders on small-molecule microarrays, primary screen, biochemical, small-molecule microarray, 635/667 nm fluorescence (AID 1132)
# run conditions: FST binding, 635 nm fluorescence, higher = more signal
Let's look at some compounds and their measured composite z-score.
Answer field: number only, no words.

Example results:
{"compound": "CCCCC#C[C@@H]1C=C[C@H](Oc2cc(OC)c(OC)c(OC)c2)[C@@H](COC(=O)OCC)O1", "composite z-score": 0.135}
{"compound": "CCOC(=O)[C@H](Cc1ccccc1)NC(=O)CCC1CC(OC(=O)NCCc2ccc(F)cc2)CC2(CCCC(COC(=O)NCc3ccccc3)O2)O1 (some centres undefined)", "composite z-score": 0.63}

The compound C[n+]1ccc(-c2ccc(CO)cc2)cc1 showed composite z-score equal to 1.55

The compound COC(=O)[C@H]1O[C@@H](c2c(OC)c(OC)c(C)c(OC)c2OC)[C@H](C)[C@@H](O)[C@H]1C showed composite z-score equal to 0.694
